Observed IC50 for Protease (Human immunodeficiency virus 1, UniProt Q9YQ12), reported per entry below.
EXPERIMENTAL_READOUT: IC50 (µM)

- COMPOUND: "O=C1N[C@H](Cc2ccccc2)C([O-])[N+]2(CCCCC2)N1Cc1ccccc1 (some centres undefined)"
  TESTED_TARGET: "Protease (Human immunodeficiency virus 1, UniProt Q9YQ12)"
  OBS_VALUE: 543
- COMPOUND: "CC(C)[C@H](N)C(=O)N[C@]1(Cc2ccccc2)CC[N+]2(CCC[C@H]2C(=O)NC(=O)[C@@H](NC(C)(C)C)C(C)C)C1[O-] (some centres undefined)"
  TESTED_TARGET: "Protease (Human immunodeficiency virus 1, UniProt Q9YQ12)"
  OBS_VALUE: 204
- COMPOUND: "CC[C@H](C)[C@H](NC(=O)[C@@H](NC(C)(C)C)C(C)C)C(=O)NC(=O)[C@@H]1CCC[N+]12C([O-])[C@H](Cc1ccccc1)NC(=O)N2Cc1ccccc1 (some centres undefined)"
  TESTED_TARGET: "Protease (Human immunodeficiency virus 1, UniProt Q9YQ12)"
  OBS_VALUE: 169
- COMPOUND: "CC(C)(C)NC(=O)[C@@H]1CCC[N+]12C([O-])[C@H](Cc1ccccc1)NC(=O)N2Cc1ccccc1 (some centres undefined)"
  TESTED_TARGET: "Protease (Human immunodeficiency virus 1, UniProt Q9YQ12)"
  OBS_VALUE: 44.5

----------
target: Protease (Human immunodeficiency virus 1); test: Inhibition of HIV1 protease by Lineweaver-Burke method
Sequence (Q9YQ12 whole entry): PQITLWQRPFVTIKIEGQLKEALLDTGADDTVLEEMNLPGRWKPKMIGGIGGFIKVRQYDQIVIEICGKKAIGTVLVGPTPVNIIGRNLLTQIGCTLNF
pKi: −log10 of the molar value.
EXPERIMENTAL_READOUT: pKi

- MOLECULE: "CC(C)[C@H](N)C(=O)N[C@]1(Cc2ccccc2)CC[N+]2(CCC[C@H]2C(=O)NC(=O)[C@@H](NC(C)(C)C)C(C)C)C1[O-] (some centres not stated)"
  OBS_VALUE: 4.00
- MOLECULE: "CC(C)[C@H](N)C(=O)N[C@]1(Cc2ccccc2)CC[N+]2(CCC[C@H]2C(=O)NC(C)(C)C)C1[O-] (some centres not stated)"
  OBS_VALUE: 3.24
- MOLECULE: "O=C1N[C@H](Cc2ccccc2)C([O-])[N+]2(CCCCC2)N1Cc1ccccc1 (some centres not stated)"
  OBS_VALUE: 3.34
- MOLECULE: "O=C1N[C@@H](Cc2ccccc2)C([O-])[N+]2(CCCCC2)N1Cc1ccccc1 (some centres not stated)"
  OBS_VALUE: 4.58
- MOLECULE: "CC(C)[C@H](NC(C)(C)C)C(=O)NC(=O)[C@@H]1CCC[N+]12C([O-])[C@H](Cc1ccccc1)NC(=O)N2Cc1ccccc1 (some centres not stated)"
  OBS_VALUE: 3.53
- MOLECULE: "CC[C@H](C)[C@H](NC(=O)[C@@H](NC(C)(C)C)C(C)C)C(=O)NC(=O)[C@@H]1CCC[N+]12C([O-])[C@H](Cc1ccccc1)NC(=O)N2Cc1ccccc1 (some centres not stated)"
  OBS_VALUE: 3.83
- MOLECULE: "CC(C)(C)NC(=O)[C@@H]1CCC[N+]12C([O-])[C@H](Cc1ccccc1)NC(=O)N2Cc1ccccc1 (some centres not stated)"
  OBS_VALUE: 4.46

The reported numbers originate from ChEMBL document CHEMBL1136876.
